test system: rats; assay: Vogel punished drinking test with PTZ, proconflict paradigm (anti-proconflict effect, anti-proconflict index); type: in vivo, rat; details: Rattus norvegicus, iv, 0.25 h; i.v., 15 min before test, PTZ i.p., shock 0.35 mA; fiducial limits on following line
observed.property: log10(ED50) (log10 of the value in µmol/kg)
Could you please treat all values as log10 of ED50 in µmol/kg?

Here are 5 compounds together with their reported answers.
O=C(NCC1CC1)c1ncn2c1CN=C(c1ccccc1Br)c1cc(F)ccc1-2 [Example 11(d)] ... -0.37
NC(=O)c1ncn2c1CN=C(c1ccccc1Br)c1cc(F)ccc1-2 [Example 9] ... -1.21
CCNC(=O)c1ncn2c1CN=C(c1ccccc1Br)c1cc(F)ccc1-2 [Example 10] ... -1.10
C=CCNC(=O)c1ncn2c1CN=C(c1ccccc1Br)c1cc(F)ccc1-2 [Example 11(c)] ... -0.74
CN1C(=O)CN=C(c2ccccc2)c2cc(Cl)ccc21 [Diazepam, reference compound] ... 0.28

Below are 3 compounds. Give each one its log10(ED50).
1. NC(=O)c1ncn2c1CN=C(c1ccccc1Cl)c1cc(Cl)ccc1-2 [reference compound]
2. CC(C)NC(=O)c1ncn2c1CN=C(c1ccccc1Br)c1cc(F)ccc1-2 [Example 11(b)]
3. CCCNC(=O)c1ncn2c1CN=C(c1ccccc1Br)c1cc(F)ccc1-2 [Example 11(a)]

1. -0.35
2. -0.28
3. -0.36

response.value for CC(C)(C)OC(=O)c1ncn2c1[C@@H]1CCCN1C(=O)c1c(Br)cccc1-2 [Bretazenil, reference compound] (field: log10(ED50)) = -0.70
